These measurements were taken from paper PMC10753549.

test: Cytotoxicity assay on Vero cells; type: cell-based; settings: African green monkey, virus-uninfected Vero cells, CC50 (50% cytotoxic concentration), 10-point dose–response curves in triplicate
parameter: CC50

### Prompt Quick one: CC50 for COc1c(C)c2c(c(O)c1C/C=C(\C)CCC(=O)O)C(=O)OC2 [MPA, mycophenolic acid] ?
### Response > 1000 µM
